Read-out: solute carrier (SLCO1B1), SLCO1B1 (gene 10599)
PROTOCOL: LTEA_HepaRG_SLCO1B1: Life Technologies and Expression Analysis (LTEA) Assay for solute carrier (SLCO1B1) using HepaRG (AID 2283530)
RUN_PARAMETERS: mRNA level, 48 h; actives raise or lower the signal
Activity calls are given as the source filed them. The calls were made as follows: active = hit-call score of the fitted dose curve at least 0.9, where 1 is the maximum; inactive = score below 0.9.
Labels: Y for active, N for inactive

{"COMPOUND": "CN(C)N=O", "CLASS_ASSIGNMENT": "N"}
{"COMPOUND": "O=C(Nc1ccc2[nH]ccc2c1)c1cc2cc(F)ccc2n1Cc1cccc(F)c1", "CLASS_ASSIGNMENT": "Y"}
{"COMPOUND": "CCCCCCCCc1ccc(O)cc1", "CLASS_ASSIGNMENT": "N"}
{"COMPOUND": "CCOP(=S)(OCC)Oc1nc(Cl)c(Cl)cc1Cl", "CLASS_ASSIGNMENT": "N"}
{"COMPOUND": "CCC(C)(C)c1ccc(O)c(C(C)(C)CC)c1", "CLASS_ASSIGNMENT": "N"}
{"COMPOUND": "O=C(O)C(F)(F)C(F)(F)C(F)(F)C(F)(F)C(F)(F)C(F)(F)C(F)(F)C(F)(F)C(F)(F)C(F)(F)F", "CLASS_ASSIGNMENT": "N"}
{"COMPOUND": "C[C@@H]1C[C@@H]([C@H](O)CC2CC(=O)NC(=O)C2)C(=O)[C@@H](C)C1", "CLASS_ASSIGNMENT": "Y"}
{"COMPOUND": "C[C@]12CCC(=O)C[C@@H]1CC[C@@H]1[C@@H]2CC[C@]2(C)[C@@H](O)CC[C@@H]12", "CLASS_ASSIGNMENT": "N"}
{"COMPOUND": "ClC1(Cl)C2(Cl)C3(Cl)C4(Cl)C(Cl)(Cl)C5(Cl)C3(Cl)C1(Cl)C5(Cl)C24Cl (stereo not given)", "CLASS_ASSIGNMENT": "N"}
{"COMPOUND": "Oc1cccc2cccnc12", "CLASS_ASSIGNMENT": "N"}

---

Read-out: matrix metalloproteinase-10 (MMP10), MMP10 (gene 4319)
PROTOCOL: LTEA_HepaRG_MMP10: Life Technologies and Expression Analysis (LTEA) Assay for matrix metalloproteinase-10 (MMP10) using HepaRG (AID 2283517)
RUN_PARAMETERS: mRNA level, 48 h; actives raise or lower the signal
Calls of active or inactive are those of the source. Rule for the calls: active = hit-call score of the fitted dose curve at least 0.9, where 1 is the maximum; inactive = score below 0.9.
Labels: active, inactive

{"MOLECULE": "C=CC(=O)OCCCCCC(C)C", "CLASS_ASSIGNMENT": "inactive"}
{"MOLECULE": "CC12CC1(C)C(=O)N(c1cc(Cl)cc(Cl)c1)C2=O (stereo not drawn)", "CLASS_ASSIGNMENT": "inactive"}
{"MOLECULE": "CCOP(=S)(OCC)Oc1nc(Cl)c(Cl)cc1Cl", "CLASS_ASSIGNMENT": "inactive"}
{"MOLECULE": "O=c1[nH]c(=O)[nH]c(=O)[nH]1", "CLASS_ASSIGNMENT": "inactive"}
{"MOLECULE": "CC(=O)[O][Hg][c]1ccccc1", "CLASS_ASSIGNMENT": "active"}
{"MOLECULE": "CCCCCCCCc1ccc(O)cc1", "CLASS_ASSIGNMENT": "inactive"}
{"MOLECULE": "Oc1cccc2cccnc12", "CLASS_ASSIGNMENT": "inactive"}
{"MOLECULE": "CCOP(=S)(OCC)SCSP(=S)(OCC)OCC", "CLASS_ASSIGNMENT": "inactive"}
{"MOLECULE": "CC(C)(C)CC(C)(C)c1ccc(O)cc1", "CLASS_ASSIGNMENT": "inactive"}
{"MOLECULE": "ClCC(Cl)CCl", "CLASS_ASSIGNMENT": "inactive"}
{"MOLECULE": "C=C(C)C(=O)[O][Sn]([CH2]CCC)([CH2]CCC)[CH2]CCC", "CLASS_ASSIGNMENT": "inactive"}
{"MOLECULE": "Cc1ccccc1N", "CLASS_ASSIGNMENT": "inactive"}
{"MOLECULE": "C[C@]12CCC(=O)C[C@@H]1CC[C@@H]1[C@@H]2CC[C@]2(C)[C@@H](O)CC[C@@H]12", "CLASS_ASSIGNMENT": "inactive"}
{"MOLECULE": "CCC(=O)C(CC(C)N(C)C)(c1ccccc1)c1ccccc1 (stereo not drawn)", "CLASS_ASSIGNMENT": "inactive"}
{"MOLECULE": "CC(C)(C)c1cc(O)ccc1O", "CLASS_ASSIGNMENT": "inactive"}
{"MOLECULE": "O=C(O)C(Cl)(Cl)Cl", "CLASS_ASSIGNMENT": "inactive"}
{"MOLECULE": "CN(C)N=O", "CLASS_ASSIGNMENT": "inactive"}
{"MOLECULE": "CC(C)(OO)c1ccccc1", "CLASS_ASSIGNMENT": "inactive"}
